biological target: human Edg-1 receptor (Homo sapiens); construct: expressed in transfected cells; membrane preparation; experiment: GTP-γ-S assay using human Edg-1 receptors (scintillation proximity assay, membrane preparation from CHO Flp-In cell line); format: biochemical; settings: example compound at 10 μM; relative to 10 μM S1P; GTP-γ-S SPA, human Edg-1 membranes
ATTRIBUTE_MEASURED: % Activation (Edg-1 receptor activation in percent of the activation by 10 μM S1P)
Note: state the figure and append the unit.

Could you report % Activation (Edg-1 receptor activation in percent of the activation by 10 μM S1P) for every entry in the following list?
1. CCCOc1nc(CN2CCSC2)nc2oc(-c3cccc(F)c3)nc12
2. CCOc1nc(Cc2ccc(Cl)cc2)nc2oc(-c3cccc(C)c3)nc12
3. COc1cccc(-c2nc3c(OCC(C)C)nc(Cc4ccccc4)nc3o2)c1
4. CCCOc1nc(Cc2ccc(Cl)cc2)nc2oc(-c3cc(C)c(OCC(O)CN(C)C)c(C)c3)nc12 (stereo not shown)

Result string:
["93%", "101%", "114%", "60%"]

---

Target: human Edg-1 receptor (Homo sapiens, UniProt P21453)
Construct: expressed in transfected cells; membrane preparation
Sequence (P21453 whole entry): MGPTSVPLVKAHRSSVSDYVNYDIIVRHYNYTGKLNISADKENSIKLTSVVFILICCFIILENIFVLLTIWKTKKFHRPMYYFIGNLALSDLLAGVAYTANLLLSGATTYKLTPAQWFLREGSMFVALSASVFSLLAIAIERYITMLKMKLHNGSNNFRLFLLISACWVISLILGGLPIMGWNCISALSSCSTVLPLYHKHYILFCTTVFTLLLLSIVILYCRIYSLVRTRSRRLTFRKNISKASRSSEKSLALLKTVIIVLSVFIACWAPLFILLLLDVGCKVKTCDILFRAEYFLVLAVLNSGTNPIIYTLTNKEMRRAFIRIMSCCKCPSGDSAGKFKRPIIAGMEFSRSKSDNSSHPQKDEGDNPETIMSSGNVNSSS
Assay: GTP-γ-S assay using human Edg-1 receptors (scintillation proximity assay, membrane preparation from CHO Flp-In cell line)
Assay type: biochemical
Conditions: example compound at 10 μM; relative to 10 μM S1P; GTP-γ-S SPA, human Edg-1 membranes
From the text: Determination of the Pharmacological Activity A) GTP-γ-S Assay Using Human Edg-1 Receptors In order to determine the Edg-1 receptor activation by the compounds of the invention, a GTP-γ-S (guanosine 5′-[γ-thio]triphosphate) assay for G-protein coupled receptor binding based on the scintillation proximity assay principle was used, employing a cell membrane preparation from a CHO Flp-In cell line which constitutively overexpresses the human Edg-1 receptor. […]
Would you kindly list % Activation (Edg-1 receptor activation in percent of the activation by 10 μM S1P) for each of these compounds?
Give bare numbers, in %.

Here is how some compounds turned out for % Activation (Edg-1 receptor activation in percent of the activation by 10 μM S1P).
> print(dat)
                                   compound  u  obs.value
1  CCCOc1nc(Cc2ccc(Cl)cc2)nc2oc(-c3ccc(OCC(O)CNC4CCCCC4)c(Cl)c3)nc12 (stereo not shown) [Example 211]  %        112
2  CCOc1nc(Cc2ccc(Cl)cc2)nc2oc(-c3cc(C)c(OCC(O)CNC4CCC(C(F)(F)F)CC4)c(C)c3)nc12 (stereo not shown) [Example 261]  %         86
3  CCCOc1nc(Cc2ccc(Cl)cc2)nc2oc(-c3cc(C)c(OCC(=O)N4CCC[C@H]4C(=O)OC(C)(C)C)c(C)c3)nc12 [Example 307]  %         10
4  CCCOc1nc(CN2C(=O)CC(C)(C)CC2=O)nc2oc(-c3cccc(F)c3)nc12 [Example 142]  %         75
5  FCCCOc1nc(CN2CCOCC2)nc2oc(-c3cccc(F)c3)nc12 [Example 31]  %         59
6  CCCOc1nc(CN2CCC(F)(F)CC2)nc2oc(-c3cccc(C(F)(F)F)c3)nc12 [Example 73]  %        120

Here is the next item to consider.
Query string: Hello, please tell me recorded % Activation (Edg-1 receptor activation in percent of the activation by 10 μM S1P) for this one: CCCOc1nc(Cc2ccc(Cl)cc2)nc2oc(-c3cc(C)c(OCC(=O)N4CCC[C@H]4C(=O)O)c(C)c3)nc12 [Example 245]
Result string: 144
